protocol_details: clinical
Design: species or system human
experimental_setup: human, in vivo, Tmax

- compound: "Cc1ncc(COP(=O)(O)O)c(C=O)c1O [P5P, Pyridoxal 5′-phosphate, reference compound]"
  Tmax: "4.02 min"

====

protocol_details: Single intravenous dose escalation of P5P, plasma pharmacokinetics (Examples Two and Three)
Type: in vivo, human
experimental_setup: both sexes, human, plasma, iv, 1 mg/kg, Group 1, P5P 1 mg/kg single iv; plasma PA; mean; read-out: T½ (converted)

- compound: "Cc1ncc(CO)c(C(=O)O)c1O [PA, 4-pyridoxic acid]"
  half-life / h: 2.82

====

protocol_details: Single intravenous dose escalation of P5P, plasma pharmacokinetics (Examples Two and Three)
Format: in vivo, human
experimental_setup: both sexes, human; P5P 5 mg/kg single iv bolus, fasting; plasma; read-out: AUC-T
endpoint_name: AUC(0-t) (µg·h/mL)

- compound: "Cc1ncc(COP(=O)(O)O)c(C=O)c1O [P5P, Pyridoxal 5′-phosphate, reference compound]"
  value_unit: "µg·h/mL"
  result_value: 173

Ref: patent US20090018106A1
